Values compiled from PubChem BioAssay (NCI).

System: SW-620 colon
Test: NCI tumour cell line growth inhibition, 48 h
assay readout: TGI (µM)
Supply the numeric figure in µM, leaving out any unit text.

# lookup: TGI of Fc1ccc(C(OCCN2CC3CCC(C2)N3CCCc2ccccc2)c2ccc(F)cc2)cc1 17.3

Entry O=C(N/N=C/c1cc(Br)cc(Br)c1[O-])c1ccccc1O.O=C(N/N=C/c1cc(Br)cc(Br)c1[O-])c1ccccc1O.[Co+2] has what TGI? 17.2

Data request, read-out TGI, for CCOc1ccc(N/C(=C(/C(Cl)=C(/Cl)NC(C)(C)C)[N+](=O)[O-])n2nnc3ccccc32)cc1 41.9

###

Tested on: K-562 leukemia
Experiment: NCI tumour cell line growth inhibition, 48 h
assay readout: TGI

Write down the reported TGI of CCc1ccccc1NC(=O)/C(N=O)=C(/C)O , test system: K-562 leukemia. > 100 µM

What reported TGI corresponds to CN(Cc1cnc2c(N)nc(N)nc2n1)c1ccc(Cl)cc1 on K-562 leukemia? > 100 µM

TGI of CN(C)Cc1cc(N=Nc2ccc(Cl)cc2)cc(CN(C)C)c1O on K-562 leukemia? 6.75 µM

Hi! What's the reported TGI for Cn1cccc1-c1cc(-c2ccc(Br)cc2)[nH]c(=O)c1C#N on K-562 leukemia? > 100 µM

Checklist item: TGI tested on K-562 leukemia, entry O=C1c2ccccc2N2Oc3ccccc3C12c1ccccc1 (stereo not given) , value? > 100 µM

Find the measured TGI: item O=[N+]([O-])c1ccc(N2CCC(CCCC3CCN(c4ccc([N+](=O)[O-])cc4[N+](=O)[O-])CC3)CC2)c([N+](=O)[O-])c1 , target or system K-562 leukemia. 55.9 µM

// map BrCC[N+]12CC[N+](CCBr)(CC1)C2 to recorded TGI (system: K-562 leukemia) > 100 µM

Which measured TGI belongs to COc1ccc(NC(=S)c2ccoc2C)cc1CC(=O)OC(C)C , tested on K-562 leukemia? > 100 µM

What TGI appears in the records for this compound with K-562 leukemia? Fc1ccc(C(OCCN2CC3CCC(C2)N3CCCc2ccccc2)c2ccc(F)cc2)cc1 4.99 µM

What reported TGI corresponds to CC1=C(C(=O)N[C@@H](CC(C)C)C(=O)O)N2C(=O)[C@@H](NC(=O)C(N)c3ccccc3)[C@H]2SC1 (stereo not given in full) on K-562 leukemia? > 100 µM

###

System: HOP-62 NSCLC
Test: NCI tumour cell line growth inhibition, 48 h; in the data active means GI50 below about 0.43 µM; inactive means the rest
Result category, one only: active, inactive

Entry Cc1nn(-c2ccc(Cl)cc2)c2nc3c(nc12)C(=O)C(=O)c1ccccc1-3 : call = ? inactive

Give the logged outcome of this assay for the following compound: CC(C)(c1ccccc1)c1ccc(Oc2ccc(C#N)c(C#N)c2)cc1 inactive

Give the logged outcome of this assay for the following compound: Cc1[nH]c2ccc(F)cc2c1-c1nc2c3cccnc3c3ncccc3c2[nH]1 active

Hello, I am checking results. What call was entered for CN(C)C(=O)c1cnc2oc3ccc(O)cc3c2c1-c1ccccc1 ? inactive

Assay outcome for COc1ccc(/C=C(\C(=O)NCc2cccnc2)S(=O)(=O)c2ccccc2)cc1OC : what was it? inactive

Would you mind telling me which call this test gave c1ccc2[nH]c(-c3cc(-c4ccc5c(c4)OCO5)n[nH]3)nc2c1 ? inactive

Test call, this compound: COC(=O)C1=C(C)NC(C)=C(C(=O)OCC(C)C)C1c1ccccc1[N+](=O)[O-] (stereo not given) inactive

// return assay outcome for Nc1ccccc1C#C/C=C\C#Cc1cccc(O)c1 inactive

Check the results log: what was the call for C#CCNCCN1C(=O)c2ccc3c4c(ccc(c24)C1=O)C(=O)N(CCNCC#C)C3=O ? inactive

Per the records of this test, what outcome belongs to COC(=O)Nc1nc2ccc(Oc3cccc(NC(=O)Nc4cc(C(F)(F)F)ccc4F)c3)cc2[nH]1 ? inactive
